Values from patent US10947213B1

Molecular target: TLR7/NFKb HEK cells (Homo sapiens)
Sequence (Q9NYK1 27-1049): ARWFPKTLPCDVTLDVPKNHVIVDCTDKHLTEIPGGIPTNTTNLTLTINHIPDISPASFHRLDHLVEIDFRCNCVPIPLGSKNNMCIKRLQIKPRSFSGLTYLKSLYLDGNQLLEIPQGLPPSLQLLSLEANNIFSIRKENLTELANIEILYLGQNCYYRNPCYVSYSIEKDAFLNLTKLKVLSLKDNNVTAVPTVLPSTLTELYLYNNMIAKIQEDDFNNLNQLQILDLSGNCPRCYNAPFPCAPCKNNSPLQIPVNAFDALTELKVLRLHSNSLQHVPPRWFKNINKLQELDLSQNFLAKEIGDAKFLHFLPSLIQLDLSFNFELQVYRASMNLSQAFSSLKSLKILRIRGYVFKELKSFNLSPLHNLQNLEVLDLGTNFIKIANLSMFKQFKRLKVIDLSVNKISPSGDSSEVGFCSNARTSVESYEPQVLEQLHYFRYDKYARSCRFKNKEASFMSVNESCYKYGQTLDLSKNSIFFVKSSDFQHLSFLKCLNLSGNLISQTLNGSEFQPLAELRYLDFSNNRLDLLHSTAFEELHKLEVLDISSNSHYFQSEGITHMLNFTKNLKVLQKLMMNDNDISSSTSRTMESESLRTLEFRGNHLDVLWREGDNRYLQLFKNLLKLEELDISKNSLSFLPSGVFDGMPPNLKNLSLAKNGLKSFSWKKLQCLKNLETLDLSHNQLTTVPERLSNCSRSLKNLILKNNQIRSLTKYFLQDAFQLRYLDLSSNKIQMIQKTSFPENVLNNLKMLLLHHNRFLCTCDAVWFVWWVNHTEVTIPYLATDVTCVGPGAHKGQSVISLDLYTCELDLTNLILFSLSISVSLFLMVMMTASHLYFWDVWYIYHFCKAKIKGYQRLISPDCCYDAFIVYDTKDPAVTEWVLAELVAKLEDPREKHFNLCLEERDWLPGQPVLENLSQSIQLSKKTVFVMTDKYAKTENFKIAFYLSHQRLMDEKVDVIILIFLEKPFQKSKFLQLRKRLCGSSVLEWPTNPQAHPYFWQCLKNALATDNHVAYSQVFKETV
Test: HEK Cell Assay (TLR7/NFKb reporter, Steady-Glo luciferase readout)
Settings: 30 min compound preincubation, then R*48 agonist for 5 hours, read-out: Potency
pIC50: −log10 of the molar value. Counter-ions that a name gives are not always drawn.
measured_metric: pIC50

// known answers, use as guide
compound	pIC50
C[C@H]1C[C@@H](NC(=O)CN(C)CCO)CN(c2ccc(C#N)c3nccnc23)C1	> 6.00
COCCN[C@@H]1C[C@H](C)CN(c2ccnc3nccnc23)C1	< 5.00
c1ccc2c(N3CCC(COCCN4CCCCC4)CC3)ccnc2c1	5.00 to 6.00

Below are 5 compounds. Give each one its pIC50.
1. C[C@@H]1CN(c2ccnc3nccnc23)C[C@H](CN2CCC(N3CCCCC3)CC2)O1
2. COc1ccc(N2C[C@@H](C)C[C@@H](NC(=O)C(N)C(F)(F)F)C2)c2cccnc12 (single isomer, unassigned) [Compound 191]
3. C[C@@H]1CN(c2ccnc3nccnc23)C[C@H](C(=O)N[C@@H]2CCCNC2)O1
4. Cc1ccc(N2C[C@H](N)C[C@H](C(F)(F)F)C2)c2cccnc12 [Compound 586, hydrochloride]
5. N[C@H]1C[C@@H](C2CC2)CN(c2ccc(C(F)(F)F)c3nccnc23)C1 (relative stereo)

Result string:
> 6.00
5.00 to 6.00
5.00 to 6.00
> 6.00
> 6.00

* * *

biological target: TLR7/NFKb HEK cells (Homo sapiens); assay: HEK Cell Assay (TLR7/NFKb reporter, Steady-Glo luciferase readout); conditions: 30 min compound preincubation, then R*48 agonist for 5 hours, read-out: Potency
measured_metric: IC50

Past entries and their recorded results:
compound	measured_metric	endpoint_result
CCN(CC)CCNCC1CCN(c2ccnc3cc(C)ccc23)CC1	IC50	1 to 10 µM
N#Cc1ccc(N2CC(N)CC(C(F)(F)F)C2)c2nccnc12 (single isomer, unassigned) [Compound 82]	IC50	< 1 µM
N#Cc1ccc(N2CCC(C(=O)NCCN3CCOCC3)CC2)c2cccnc12	IC50	1 to 10 µM
CCN(CC)CCNCC1CCN(c2ccc(C#N)c3ncccc23)CC1	IC50	1 to 10 µM
C[C@H]1C[C@@H](NC(=O)CC(O)C(C)(C)C)CN(c2ccnc3nccnc23)C1 (single isomer, unassigned) [Compound 149]	IC50	> 10 µM

Each compound below has a recorded value; state its IC50.
1. COc1cccc(NCC(=O)NCC2CCN(c3ccnc4nccnc34)CC2)c1
2. C[C@H]1C[C@@H](NCC(=O)N2CCC2)CN(c2ccc(C(F)(F)F)c3ncccc23)C1
3. C[C@@H]1CN(c2ccnc3nccnc23)C[C@H](CN2CCN(C)CC2)O1

Result string:
> 10 µM
< 1 µM
1 to 10 µM

* * *

Please respond with reported pIC50 for every item in the list.
Biological target: TLR7/NFKb HEK cells (Homo sapiens, UniProt Q9NYK1)
Sequence (Q9NYK1 27-1049): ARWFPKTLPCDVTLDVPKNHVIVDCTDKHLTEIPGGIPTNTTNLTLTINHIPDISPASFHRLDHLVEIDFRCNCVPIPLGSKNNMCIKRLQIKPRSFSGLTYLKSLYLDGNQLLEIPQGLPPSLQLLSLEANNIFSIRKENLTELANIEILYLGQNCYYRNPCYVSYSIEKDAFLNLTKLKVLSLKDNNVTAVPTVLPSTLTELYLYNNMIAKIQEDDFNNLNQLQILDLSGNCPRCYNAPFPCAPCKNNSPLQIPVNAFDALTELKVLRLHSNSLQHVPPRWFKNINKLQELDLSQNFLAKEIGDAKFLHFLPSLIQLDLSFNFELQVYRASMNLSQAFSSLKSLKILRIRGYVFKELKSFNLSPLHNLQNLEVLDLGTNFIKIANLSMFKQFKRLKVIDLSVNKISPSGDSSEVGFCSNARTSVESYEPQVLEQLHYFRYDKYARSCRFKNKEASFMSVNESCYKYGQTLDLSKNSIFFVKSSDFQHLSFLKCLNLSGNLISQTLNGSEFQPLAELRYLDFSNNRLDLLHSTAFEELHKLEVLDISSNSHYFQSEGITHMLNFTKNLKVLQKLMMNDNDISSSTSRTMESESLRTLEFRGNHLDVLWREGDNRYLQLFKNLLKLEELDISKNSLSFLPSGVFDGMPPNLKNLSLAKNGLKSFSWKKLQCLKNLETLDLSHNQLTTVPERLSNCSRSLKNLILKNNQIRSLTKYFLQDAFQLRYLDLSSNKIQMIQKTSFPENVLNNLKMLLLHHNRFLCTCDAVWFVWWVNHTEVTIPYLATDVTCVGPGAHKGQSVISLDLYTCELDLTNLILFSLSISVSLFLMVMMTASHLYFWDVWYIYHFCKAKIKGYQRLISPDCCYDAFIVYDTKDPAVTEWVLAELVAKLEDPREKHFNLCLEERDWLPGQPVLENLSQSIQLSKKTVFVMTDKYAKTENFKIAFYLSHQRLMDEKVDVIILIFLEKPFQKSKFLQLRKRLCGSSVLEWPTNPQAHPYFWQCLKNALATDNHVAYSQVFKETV
Experiment: HEK Cell Assay (TLR7/NFKb reporter, Steady-Glo luciferase readout)
Conditions: 30 min compound preincubation, then R*48 agonist for 5 hours, read-out: Potency
pIC50: −log10 of the molar value.

Batch: pIC50 for all items listed.
1. CC(CN(C)C)NC(=O)C1CCN(c2ccc(C#N)c3ncccc23)CC1 (stereo not shown) [Compound 420]
2. C[C@H]1C[C@@H](NC(=O)CC2CCN(C)CC2)CN(c2ccc(C(F)(F)F)c3ncccc23)C1 [Compound 244]

Result string:
1. > 6.00
2. > 6.00

* * *

target: TLR7/NFKb HEK cells (Homo sapiens); experiment: HEK Cell Assay (TLR7/NFKb reporter, Steady-Glo luciferase readout); conditions: 30 min compound preincubation, then R*48 agonist for 5 hours, read-out: Potency
pIC50: −log10 of the molar value. Where a name gives a salt, the structure may show the parent alone.
Provide the reported pIC50 of each item.

Before answering, review these 6 worked examples.
compound	measured_metric	endpoint_result
CC(C)(C(=O)N[C@@H]1C[C@H](C(F)(F)F)CN(c2ccc(C#N)c3ncccc23)C1)N1CCCCC1	pIC50	> 6.00
N#Cc1ccc(N2CC(N)CC(F)(F)C2)c2nccnc12 (single isomer, unassigned) [Compound 75]	pIC50	> 6.00
CC1(C)C[C@@H](NC(=O)CO)CN(c2ccc(C#N)c3nccnc23)C1	pIC50	5.00 to 6.00
N#Cc1ccc(N2CC(NC(=O)CC3(N)CCOCC3)CC(C(F)(F)F)C2)c2cccnc12 (racemic) [Compound 493, hydrochloride]	pIC50	> 6.00
CC(C(=O)N[C@@H]1C[C@H](C)CN(c2ccc(C(F)(F)F)c3ncccc23)C1)N1CCN(C)CC1 (stereo partly shown)	pIC50	> 6.00
COC(C)C(=O)N[C@@H]1C[C@H](C)CN(c2ccnc3nccnc23)C1 (single isomer, unassigned) [Compound 160]	pIC50	< 5.00

Now look at this one.
Query string: Please look up its pIC50: C[C@H]1C[C@@H](NC(=O)CN(C)C)CN(c2ccc(C(F)(F)F)c3nccnc23)C1
Result string: > 6.00
